The reported measurements were obtained from patent EP1816136A1.

Catalogue of compounds with associated IC50
TESTED TARGET: GPR7 (Homo sapiens)
Construct: expressed in transfected cells; host or cells: HEK293/CRE-BLA cells (AURORA), expression vector pIRES-hygro (Clontech)
ASSAY PROCEDURE: Binding inhibition test with [125I]-[Phe2]-hNPW(1-23), GPR7 membrane preparation
APPLIED CONDITIONS: Table 1, membrane preparation of HEK293/CRE-BLA cells expressing GPR7, 1 hour at room temperature
Procedure: One nmol of [Phe2]-hNPW(1-23) (prepared in Synthesis Example 19) was dissolved in 5 µL of anhydrous DMSO, and the solution was mixed with 0.1M nickel chloride. Then, the mixture was mixed with 10 µL of a 0.00 1 % aqueous solution of hydrogen peroxide, 10 µL of an enzyme solution (lactoperoxidase (Sigma) adjusted to 10 µg/mL with a 0.1M HEPES buffer solution), and 37 Mbq/10 µL of Iodine-125 (Amersham), whereafter the resulting mixture was reacted for 60 minutes at room temperature. […]
Non-standard residues stand in square brackets, D forms with d. Residues, ends and D or L forms follow the SMILES beside them. Ava = NCCCCC(=O)O
A number alone suffices; assume nM.

COMPOUND	IC50, nM
CC(C)C[C@H](NC(=O)CNC(=O)[C@H](CO)NC(=O)[C@H](CC(C)C)NC(=O)[C@H](CC(C)C)NC(=O)CNC(=O)[C@H](C)NC(=O)[C@H](C)NC(=O)[C@H](CCCNC(=N)N)NC(=O)CNC(=O)CCCCNC(=O)CCCCNC(=O)CCCCNC(=O)[C@H](CCCCN)NC(=O)[C@H](Cc1ccc(O)cc1)NC(=O)[C@@H](N)Cc1c[nH]c2ccccc12)C(N)=O [compound 7] (H-WYK[Ava][Ava][Ava]GRAAGLLSGL-NH2)	0.09
CC(C)C[C@H](NC(=O)CNC(=O)[C@H](CO)NC(=O)[C@H](CC(C)C)NC(=O)[C@H](CC(C)C)NC(=O)CNC(=O)[C@H](C)NC(=O)[C@H](C)NC(=O)[C@H](CCCNC(=N)N)NC(=O)CNC(=O)CCCCNC(=O)CCCCNC(=O)[C@H](CCCCN)NC(=O)[C@H](Cc1ccc(O)cc1)NC(=O)[C@@H](N)Cc1c[nH]c2ccccc12)C(N)=O [compound 6] (H-WYK[Ava][Ava]GRAAGLLSGL-NH2)	0.47

Below: the item to evaluate.
Requested read-out IC50, target or system GPR7 (Homo sapiens), entry CC(C)C[C@H](NC(=O)CNC(=O)[C@H](CO)NC(=O)[C@H](CC(C)C)NC(=O)[C@H](CC(C)C)NC(=O)CNC(=O)[C@H](C)NC(=O)[C@H](C)NC(=O)[C@H](CCCNC(=N)N)NC(=O)CNC(=O)CCCCNC(=O)CCCCNC(=O)CCCCNC(=O)CCCCNC(=O)[C@H](CCCCN)NC(=O)[C@H](Cc1ccc(O)cc1)NC(=O)[C@@H](N)Cc1c[nH]c2ccccc12)C(N)=O [compound 8] (H-WYK[Ava][Ava][Ava][Ava]GRAAGLLSGL-NH2)
1.1

----------
TESTED TARGET: GPR8 (Homo sapiens)
Construct: expressed in transfected cells; host or cells: HEK293/CRE-BLA cells (AURORA), expression vector pIRES-hygro (Clontech)
ASSAY PROCEDURE: Measurement of activation capacity on GPR8 (CRE-BLA beta-lactamase reporter assay)
Type: cell-based
APPLIED CONDITIONS: Table 1; HEK293/CRE-BLA cells expressing GPR8; forskolin 1 µM; 3 hours at 37°C; read-out: GPR8 (nM) EC 50
Non-standard residues stand in square brackets, D forms with d. Residues, ends and D or L forms follow the SMILES beside them. Ava = NCCCCC(=O)O
MEASURED PROPERTY: EC50
Kindly report the value followed by its unit.

Return EC50 measured with GPR8 (Homo sapiens) given this molecule: CC(C)C[C@H](NC(=O)CNC(=O)[C@H](CO)NC(=O)[C@H](CC(C)C)NC(=O)[C@H](CC(C)C)NC(=O)CNC(=O)[C@H](C)NC(=O)[C@H](C)NC(=O)[C@H](CCCNC(=N)N)NC(=O)CNC(=O)CCCCNC(=O)CCCCNC(=O)CCCCNC(=O)[C@H](CCCCN)NC(=O)[C@H](Cc1ccc(O)cc1)NC(=O)[C@@H](N)Cc1c[nH]c2ccccc12)C(N)=O [compound 7] (H-WYK[Ava][Ava][Ava]GRAAGLLSGL-NH2)
77 nM

----------
TESTED TARGET: GPR7 (Homo sapiens, UniProt P48145)
Construct: expressed in transfected cells; host or cells: HEK293/CRE-BLA cells (AURORA), expression vector pIRES-hygro (Clontech)
Sequence (P48145 whole entry): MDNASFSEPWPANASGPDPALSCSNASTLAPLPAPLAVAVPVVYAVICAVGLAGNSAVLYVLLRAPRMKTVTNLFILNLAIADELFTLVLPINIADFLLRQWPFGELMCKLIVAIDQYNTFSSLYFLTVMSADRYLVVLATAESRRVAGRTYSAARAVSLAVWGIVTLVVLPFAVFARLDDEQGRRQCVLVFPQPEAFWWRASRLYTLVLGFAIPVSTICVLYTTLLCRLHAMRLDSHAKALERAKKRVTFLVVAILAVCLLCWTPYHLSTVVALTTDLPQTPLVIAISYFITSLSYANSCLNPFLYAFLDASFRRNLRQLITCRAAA
ASSAY PROCEDURE: Binding inhibition test with [125I]-[Phe2]-hNPW(1-23), GPR7 membrane preparation
APPLIED CONDITIONS: Table 1, membrane preparation of HEK293/CRE-BLA cells expressing GPR7, 1 hour at room temperature
Non-standard residues stand in square brackets, D forms with d. Residues, ends and D or L forms follow the SMILES beside them. Ava = NCCCCC(=O)O
The reader will find reported IC50 values listed item by item below.
Reply numerically in nM, unit not repeated.

MOLECULE	MEASURED PROPERTY	OBSERVED RESULT
CC(C)C[C@H](NC(=O)CNC(=O)[C@H](CO)NC(=O)[C@H](CC(C)C)NC(=O)[C@H](CC(C)C)NC(=O)CNC(=O)[C@H](C)NC(=O)[C@H](C)NC(=O)[C@H](CCCNC(=N)N)NC(=O)CNC(=O)CCCCNC(=O)[C@H](CCCCN)NC(=O)[C@H](Cc1ccc(O)cc1)NC(=O)[C@@H](N)Cc1c[nH]c2ccccc12)C(N)=O [compound 5] (H-WYK[Ava]GRAAGLLSGL-NH2)	IC50	0.55

Could you now consider this next molecule?
Entry CC(C)C[C@H](NC(=O)CNC(=O)[C@H](CO)NC(=O)[C@H](CC(C)C)NC(=O)[C@H](CC(C)C)NC(=O)CNC(=O)[C@H](C)NC(=O)[C@H](C)NC(=O)[C@H](CCCNC(=N)N)NC(=O)CNC(=O)[C@@H](NC(=O)[C@H](CO)NC(=O)[C@H](Cc1ccc(O)cc1)NC(=O)[C@H](CO)NC(=O)[C@H](CO)NC(=O)[C@H](Cc1cnc[nH]1)NC(=O)CNC(=O)[C@H](C)NC(=O)[C@H](C)NC(=O)[C@@H]1CCCN1C(=O)[C@H](CCCCN)NC(=O)[C@H](Cc1ccc(O)cc1)NC(=O)[C@@H](N)Cc1c[nH]c2ccccc12)C(C)C)C(N)=O has what IC50?
0.23

----------
Parameter IC50: see the listing below.
TESTED TARGET: GPR8 (Homo sapiens, UniProt P48146)
Construct: expressed in transfected cells; host or cells: HEK293/CRE-BLA cells (AURORA), expression vector pIRES-hygro (Clontech)
Sequence (P48146 whole entry): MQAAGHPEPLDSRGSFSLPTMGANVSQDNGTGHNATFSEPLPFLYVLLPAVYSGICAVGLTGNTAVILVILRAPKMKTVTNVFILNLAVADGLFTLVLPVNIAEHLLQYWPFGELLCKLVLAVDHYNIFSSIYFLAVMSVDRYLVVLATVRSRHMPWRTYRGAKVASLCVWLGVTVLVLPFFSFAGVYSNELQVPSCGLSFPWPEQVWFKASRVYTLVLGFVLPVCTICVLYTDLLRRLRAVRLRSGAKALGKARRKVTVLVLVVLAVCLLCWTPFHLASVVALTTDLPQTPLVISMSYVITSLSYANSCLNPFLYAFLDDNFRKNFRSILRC
ASSAY PROCEDURE: Binding inhibition test with [125I]-[Phe2]-hNPW(1-23), GPR8 membrane preparation
APPLIED CONDITIONS: Table 2, membrane preparation of cells expressing GPR8
Experimental: One nmol of [Phe2]-hNPW(1-23) (prepared in Synthesis Example 19) was dissolved in 5 µL of anhydrous DMSO, and the solution was mixed with 0.1M nickel chloride. Then, the mixture was mixed with 10 µL of a 0.00 1 % aqueous solution of hydrogen peroxide, 10 µL of an enzyme solution (lactoperoxidase (Sigma) adjusted to 10 µg/mL with a 0.1M HEPES buffer solution), and 37 Mbq/10 µL of Iodine-125 (Amersham), whereafter the resulting mixture was reacted for 60 minutes at room temperature. […]
Non-standard residues stand in square brackets, D forms with d. Residues, ends and D or L forms follow the SMILES beside them. 2Abz = Nc1ccccc1C(=O)O; Ava = NCCCCC(=O)O
Please state the figure in nM; there is no need to write the unit.

Worked set:
MOLECULE	OBSERVED RESULT
CC(C)C[C@H](NC(=O)CNC(=O)[C@H](CO)NC(=O)[C@H](CC(C)C)NC(=O)[C@H](CC(C)C)NC(=O)CNC(=O)[C@H](C)NC(=O)[C@H](C)NC(=O)[C@H](CCCNC(=N)N)NC(=O)CNC(=O)CCCCNC(=O)c1ccccc1NC(=O)CCCCNC(=O)[C@H](CCCCN)NC(=O)[C@H](Cc1ccc(O)cc1)NC(=O)[C@@H](N)Cc1c[nH]c2ccccc12)C(N)=O [compound 13] (H-WYK[Ava][2Abz][Ava]GRAAGLLSGL-NH2)	39
CC(C)C[C@H](NC(=O)CNC(=O)[C@H](CO)NC(=O)[C@H](CC(C)C)NC(=O)[C@H](CC(C)C)NC(=O)CNC(=O)[C@H](C)NC(=O)[C@H](C)NC(=O)[C@H](CCCNC(=N)N)NC(=O)CNC(=O)c1ccccc1NC(=O)CCCCNC(=O)CCCCNC(=O)[C@H](CCCCN)NC(=O)[C@H](Cc1ccc(O)cc1)NC(=O)[C@@H](N)Cc1c[nH]c2ccccc12)C(N)=O [compound 10] (H-WYK[Ava][Ava][2Abz]GRAAGLLSGL-NH2)	8000

Field: next molecule
Which IC50 value is on record for CC(C)C[C@H](NC(=O)CNC(=O)[C@H](CO)NC(=O)[C@H](CC(C)C)NC(=O)[C@H](CC(C)C)NC(=O)CNC(=O)[C@H](C)NC(=O)[C@H](C)NC(=O)[C@H](CCCNC(=N)N)NC(=O)CNC(=O)CCCCNC(=O)CCCCNC(=O)c1ccccc1NC(=O)[C@H](CCCCN)NC(=O)[C@H](Cc1ccc(O)cc1)NC(=O)[C@@H](N)Cc1c[nH]c2ccccc12)C(N)=O [compound 16] (H-WYK[2Abz][Ava][Ava]GRAAGLLSGL-NH2) ?
160
